- Tested on: intracellular proteome of ENR+CD and ENR organoids
- PROCEDURE_TEXT: LC-MS/MS TMT proteomics of ENR+CD versus ENR organoids
- Type: cell-based, C57BL/6 mice
- PROTOCOL_CONDITIONS: up = enriched in ENR+CD, down = enriched in ENR; FDR<0.05 and log fold change cut-off

{"MOLECULE": "Q3UA16 (protein, UniProt Q3UA16 1-226, looked up, full-length) MGEDELALLNQSINEFGDKFRNRLDDNHSQVLGLRDAFKDSMKAFSEKMSLKLKEEERMTEMILEYKNQLCKQNKLIQEKKENVLKMIAEVKGKEQESEELTAKIQELKEEYARKRETISTANKANEERLKGLQKSADLYRDYLGLEIRKIHGNKLQFIFTSIDPKNPESPYMFSMSINEAKEYEVYDSSPHLECLAEFQEKVRKTNNFSAFLANIRKAFIAKVHN", "change": "down"}
{"MOLECULE": "Q7TNV0 (protein, UniProt Q7TNV0 1-380, looked up, full-length) MSAAAAPAAEGEDAPVPPSSEKEPEMPGPREESEEEEEDDEDDDEEDEEEEKEKSLIVEGKREKKKVERLTMQVSSLQREPFTVTQGKGQKLCEIERIHFFLSKKKPDELRNLHKLLYNRPGTVSSLKKNVGQFSGFPFEKGSTQYKKKEEMLKKFRNAMLKSICEVLDLERSGVNSELVKRILNFLMHPKPSGKPLPKSKKSSSKGSKKERNSSGTTRKSKQTKCPEILSDESSSDEDEKKNKEESSEDEEKESEEEQPPKKTSKKEKAKQKATAKSKKSVKSANVKKADSSTTKKNQKSSKKESESEDSSDDEPLIKKLKKPPTDEELKETVKKLLADANLEEVTMKQICKEVYENYPAYDLTERKDFIKTTVKELIS", "change": "down"}
{"MOLECULE": "P63158 (protein, UniProt P63158 1-215, looked up, full-length) MGKGDPKKPRGKMSSYAFFVQTCREEHKKKHPDASVNFSEFSKKCSERWKTMSAKEKGKFEDMAKADKARYEREMKTYIPPKGETKKKFKDPNAPKRPPSAFFLFCSEYRPKIKGEHPGLSIGDVAKKLGEMWNNTAADDKQPYEKKAAKLKEKYEKDIAAYRAKGKPDAAKKGVVKAEKSKKKKEEEDDEEDEEDEEEEEEEEDEDEEEDDDDE", "change": "down"}
{"MOLECULE": "Q768S4 (protein, UniProt Q768S4 1-302, looked up, full-length) MADTIFSSGNDQWVCPNDRQLALRAKLQTGWSVHTYQTEKQRRSQCLSPGELEIILQVIQRAERLDILEQQRIGRLVERLETMQRNVMGNGLSQCLLCGEVLGFLGSSSVFCKDCRKKVCTKCGIEASPGQKRPLWLCKICSEQREVWKRSGAWFYKGLPKYILPLKTPGRADDPHFRPLPVEPTETQPPSAETSRVYTWARGRVVSSDSDSDSDLSSSSLEDRPLPSGVKGTKGDKPRGDSGASMESPRLGPARPPSHLSGSQSSLGSEAGTGATEPQGGTPAQPEPRVPGKRHTWATPRY", "change": "up"}
{"MOLECULE": "Q08652 (protein, UniProt Q08652 1-134, looked up, full-length) MTKDQNGTWEMESNENFEGYMKALDIDFATRKIAVRLTQTKIITQDGDNFKTKTNSTFRNYDLDFTVGVEFDEHTKGLDGRHVKTLVTWEGNTLVCVQKGEKENRGWKQWVEGDKLYLELTCGDQVCRQVFKKK", "change": "down"}
